Attribution: paper PMC3817844

# tested-target: AlleyCat; AlleyCat7 (Gallus gallus, UniProt P62149, A129T/A89Q/F93E/H108I/I86L/L113R/M125L/M145R)
# test-method-notes: inhibition of Kemp elimination
measured-quantity: Ki (µM)
State the answer as a number, implicitly in µM.

Req: Entry under review: O=[N+]([O-])c1ccc2[nH]nnc2c1 [5-NBT, 5-nitro-benzotriazole] . Reported Ki?
Resp: 18
